Assay notes: Solubility in PS80 via the thermal processing method (polyphenol/surfactant concentrate)
Condition info: 20 °C, organic solvent or mixture
Readout name: solubility (mg/mL)
Give just the numeric value; mg/mL need not be written.

Prompt: Entry O=c1c(-c2ccc(O)cc2)coc2cc(O)cc(O)c12 needs its solubility filled in; supply it.
Completion: 50

====

Assay notes: Solubility in PS80 via the thermal processing method (polyphenol/surfactant concentrate)
Condition info: Polysorbate 80 (PS80), 20 °C, organic solvent or mixture
The entries below are paired with their reported solubility.
Give just the numeric value; mg/mL need not be written.

// solved cases for solubility follow
O=C(O[C@@H]1Cc2c(O)cc(O)cc2O[C@@H]1c1cc(O)c(O)c(O)c1)c1cc(O)c(O)c(O)c1 [Epigallocatechin Gallate (EGCG), Epigallocatechin gallate] :: 50
O=C1C[C@@H](c2ccc(O)cc2)Oc2cc(O)cc(O)c21 :: 50

// next item, solubility requested
Prompt: Entry O=c1cc(-c2ccccc2)oc2cc(O)cc(O)c12 needs its solubility filled in; supply it.
Completion: 50

====

Assay notes: Solubility in water
Condition info: 20 °C, water
Readout name: solubility (µg/mL)
Give just the numeric value; µg/mL need not be written.

Prompt: Entry O=c1c(-c2ccc(O)cc2)coc2cc(O)cc(O)c12 needs its solubility filled in; supply it.
Completion: 120

====

Assay notes: Solubility in PS80 via the thermal processing method (polyphenol/surfactant concentrate)
Condition info: temperature of complete solubilization in PS80
Protocol: The molar ratio of active agent (polyphenol) to solubilizing agent (surfactant) is typically 1:2 to 1:5, and at times much greater, e.g. 1:2 to 1:20 depending on the active agent/surfactant combination. Apigenin/Polysorbate 80 (PS80) formulations can be made as follows: • Apigenin powder and PS80 are mixed in the ratio from about 5 to 10 wt. % of apigenin to 95 to 90 wt. % PS80. All solubility tests were conducted with 20 ml of PS80 contained within 80 ml Pyrex glass beakers.
The entries below are paired with their reported PS80 Solution Temp..

O=C(O[C@@H]1Cc2c(O)cc(O)cc2O[C@@H]1c1cc(O)c(O)c(O)c1)c1cc(O)c(O)c(O)c1 [Epigallocatechin Gallate (EGCG), Epigallocatechin gallate] :: ~150 °C

Prompt: Entry O=C1C[C@@H](c2ccc(O)cc2)Oc2cc(O)cc(O)c21 [Naringenin] needs its PS80 Solution Temp. filled in; supply it.
Completion: ~280 °C

Prompt: Entry O=c1cc(-c2ccccc2)oc2cc(O)cc(O)c12 [Chrysin] needs its PS80 Solution Temp. filled in; supply it.
Completion: ~140 °C

Prompt: Entry O=c1c(-c2ccc(O)cc2)coc2cc(O)cc(O)c12 [Genistein] needs its PS80 Solution Temp. filled in; supply it.
Completion: ~220 °C

Prompt: Entry O.Oc1cc(O)c2c(c1)O[C@H](c1ccc(O)c(O)c1)[C@@H](O)C2 [Catechin] needs its PS80 Solution Temp. filled in; supply it.
Completion: ~210 °C

Every entry's value here was drawn from patent US20140314686A1.
